// provenance: PubChem BioAssay (NCI)

# protocol: NCI Yeast Anticancer Drug Screen. Data for the sgs1 mgt1 strain (AID 161);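 also: 0% = growth of cultures given vehicle only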
# test.conditions: S. cerevisiae sgs1 mgt1 strain, at 50.0 µM
# Method: Growth inhibition of yeast strains with defined genetic alterations is measured as a screen for potential anti-cancer activity. Selected strains with alterations in DNA damage repair or cell cycle control were exposed to compounds and growth inhibition was measured relative to vehicle treated controls. The strain used in this assay is sgs1 mgt1
This is part of a sample that, as a whole, favours compounds with a hit. Of some 79,000 tested, about 15% had one in any assay. Calls of active or inactive are those of the source. Rule as the data show it: active = growth inhibition above about 70%; inactive = the rest.
Possible outcomes: 1 (yes) (active), 0 (no) (inactive)

1. Clc1cc2n[nH]nc2c(Cl)c1Cl: 0 (no)
2. Oc1ccc(CC2CCC(O)CC2)cc1 (configuration not stated): 0 (no)
3. Oc1ccc(N=Nc2cc(Cl)ccc2Cl)cc1: 1 (yes)
4. Oc1ccc2cc(Br)ccc2c1O: 1 (yes)
5. CCCC(=O)N(C(=O)CCC)C1=C(Cl)C(=O)c2ccccc2C1=O: 1 (yes)
6. O=NNc1ccc2cc3ccc(NN=O)cc3nc2c1: 0 (no)
7. CN(C)CC1CCC/C(=C\c2ccc(Cl)c(Cl)c2)C1=O (configuration not stated): 1 (yes)
